- Target Or System: human GLP-1 receptor (human, UniProt P43220 24-463)
- Test Summary: cell-based or functional assay
Where no end group is shown, it is not given here. [ ]: non-standard residue; d: D form. αMePhe(2-F) = C[C@](N)(Cc1ccccc1F)C(=O)O; αMeBip(OMe) = alpha-methylated Bip(OMe); hhPhe = N[C@@H](CCCc1ccccc1)C(=O)O; αMeD = C[C@](N)(CC(=O)O)C(=O)O; αMeP = C[C@@]1(C(=O)O)CCCN1; αMeAPPA = not defined here; αMeS = C[C@](N)(CO)C(=O)O
Quantity Kind: cAMP release, % activity with respect to control, at 1 nM

Record cAMP release, % activity with respect to control, at 1 nM per entry; entries follow.
1. VHAQGT[αMePhe(2-F)]TSD[αMeBip(OMe)][hhPhe] (not fully specified (C-terminus); printed as VHAQGT-(αMe-2FPhe)-TSD-(αMe-Bip(OMe))-(APPA)) [Seq. ID. No. 18]
2. VH[αMeP]QGT[αMePhe(2-F)]TS[αMeD][αMeBip(OMe)][hhPhe]-NH2 [Seq. ID. No. 68]
3. VH[αMeP]EGTFT[αMeS]D[αMeBip(OMe)][αMeAPPA] (not fully specified (C-terminus); printed as VH-(αMe-Pro)-EGTFT-(αMe-Ser)-D-(αMe-Bip(OMe))-(αMe-APPA); reading uncertain) [Seq. ID. No. 164]
4. VHAQGT[αMePhe(2-F)]T[αMeS]D[αMeBip(OMe)][αMeAPPA] (not fully specified (C-terminus); printed as VHAQGT-(αMe-2FPhe)-T-(αMe-Ser)-D-(αMe-Bip(OMe))-(αMe-APPA); reading uncertain) [Seq. ID. No. 166]

Marked response:
99 % of control
40 % of control
38 % of control
39 % of control
